assay name: in vitro
experimental setup: human hepatocytes
attribute measured: CLint scaled at 1 µM (mL/min/kg)
Write the value in mL/min/kg as a bare number.

Prompt: CLint scaled at 1 µM for `COc1ccc([C@@]23CC[C@@H](O)C[C@@H]2N(C)CC3)cc1OC` ?
Response: 3

====

assay name: in vivo
experimental setup: beagle, dog, po, 10 mg/kg
attribute measured: Tmax (min)
Write the value in min as a bare number.

[[record]]
compound = "COc1ccc([C@@]23CC[C@H](O)C[C@@H]2N(C)CC3)cc1OC"
assay_value = 49.8


We next turn to a different molecule, shown below.
Prompt: Tmax for `COc1ccc([C@@]23CC[C@@H](O)C[C@@H]2N(C)CC3)cc1OC` ?
Response: 16.8

Ref: patent US20240398759A1
